Numbers sourced from patent US20110239316A1.

target: human c-Met receptor (human, UniProt P08581 25-1390)
Sequence (P08581 25-1390): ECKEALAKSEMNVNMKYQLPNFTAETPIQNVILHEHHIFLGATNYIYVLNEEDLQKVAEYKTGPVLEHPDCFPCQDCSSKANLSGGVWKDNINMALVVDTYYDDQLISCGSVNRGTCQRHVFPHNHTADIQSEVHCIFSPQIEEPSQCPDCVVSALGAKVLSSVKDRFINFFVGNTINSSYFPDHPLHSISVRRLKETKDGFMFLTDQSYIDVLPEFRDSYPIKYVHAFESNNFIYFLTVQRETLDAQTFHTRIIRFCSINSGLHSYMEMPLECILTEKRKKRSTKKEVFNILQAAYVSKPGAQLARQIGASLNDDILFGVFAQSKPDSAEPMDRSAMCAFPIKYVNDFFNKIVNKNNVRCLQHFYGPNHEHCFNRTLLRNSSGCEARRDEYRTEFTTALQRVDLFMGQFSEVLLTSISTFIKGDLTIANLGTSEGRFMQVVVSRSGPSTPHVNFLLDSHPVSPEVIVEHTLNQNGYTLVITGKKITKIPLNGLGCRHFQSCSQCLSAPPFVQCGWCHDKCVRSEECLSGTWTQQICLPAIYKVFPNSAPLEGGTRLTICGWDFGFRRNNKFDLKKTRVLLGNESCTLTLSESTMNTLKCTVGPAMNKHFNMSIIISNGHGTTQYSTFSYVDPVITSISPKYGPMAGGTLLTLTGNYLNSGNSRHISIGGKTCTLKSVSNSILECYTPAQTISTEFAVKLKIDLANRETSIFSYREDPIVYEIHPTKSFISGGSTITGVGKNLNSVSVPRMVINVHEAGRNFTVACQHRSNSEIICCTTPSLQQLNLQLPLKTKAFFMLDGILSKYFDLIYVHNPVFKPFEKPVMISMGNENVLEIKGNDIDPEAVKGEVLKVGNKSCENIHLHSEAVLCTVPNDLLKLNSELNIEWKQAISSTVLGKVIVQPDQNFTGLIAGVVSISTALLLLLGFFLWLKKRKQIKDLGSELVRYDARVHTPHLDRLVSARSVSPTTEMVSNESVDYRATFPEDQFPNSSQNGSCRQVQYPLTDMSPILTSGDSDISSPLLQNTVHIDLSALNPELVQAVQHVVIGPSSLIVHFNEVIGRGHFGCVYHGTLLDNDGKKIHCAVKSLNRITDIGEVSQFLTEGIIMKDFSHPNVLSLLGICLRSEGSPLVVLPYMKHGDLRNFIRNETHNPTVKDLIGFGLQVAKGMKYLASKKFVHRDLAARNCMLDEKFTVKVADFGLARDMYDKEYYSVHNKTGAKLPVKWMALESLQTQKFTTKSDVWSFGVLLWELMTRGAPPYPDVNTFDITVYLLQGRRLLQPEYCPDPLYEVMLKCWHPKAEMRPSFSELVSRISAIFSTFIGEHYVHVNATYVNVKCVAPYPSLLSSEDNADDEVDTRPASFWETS
method: cell-based or functional assay
Catalogue of binders with associated inhibition of HGF-induced proliferation of NCI-H441 cells ([3H]thymidine), FIG. 14B
Give your result in % as a bare value.

Worked examples follow.
murine 224G11 Mab (antibody, V domains shown) VH: EVQLQQSGPELVKPGASVKISCKTSGYIFTAYTMHWVRQSLGESLDWIGGIKPNNGLANYNQKFKGKATLTVDKSSSTAYMDLRSLTSEDSAVYYCARSEITTEFDYWGQGTALTVSS VL: DIVLTQSPASLAVSLGQRATISCRASESVDSYANSFMHWYQQKPGQPPKLLIYRASNLESGIPARFSGSGSRTDFTLTINPVEADDVATYYCQQSKEDPLTFGSGTKLEMKR : 57
[224G11] [MUP9H chim] (antibody, V domains shown) VH: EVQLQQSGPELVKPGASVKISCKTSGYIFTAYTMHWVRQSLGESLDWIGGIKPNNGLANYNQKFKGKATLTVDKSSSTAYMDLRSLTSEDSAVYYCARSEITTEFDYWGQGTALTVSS VL: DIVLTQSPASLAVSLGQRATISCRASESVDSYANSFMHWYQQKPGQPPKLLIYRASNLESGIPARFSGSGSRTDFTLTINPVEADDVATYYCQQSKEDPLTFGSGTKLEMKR : 78
[224G11] [MH chim] (antibody, V domains shown) VH: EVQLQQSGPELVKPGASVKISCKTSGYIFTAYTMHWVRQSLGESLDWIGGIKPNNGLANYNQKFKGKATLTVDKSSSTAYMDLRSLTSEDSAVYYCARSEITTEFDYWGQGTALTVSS VL: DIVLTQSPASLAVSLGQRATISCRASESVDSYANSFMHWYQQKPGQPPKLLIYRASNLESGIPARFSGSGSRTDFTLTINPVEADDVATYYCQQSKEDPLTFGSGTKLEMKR : 79

Query: Which inhibition of HGF-induced proliferation of NCI-H441 cells ([3H]thymidine), FIG. 14B value is on record for [224G11] [MMCH chim] (antibody, V domains shown) VH: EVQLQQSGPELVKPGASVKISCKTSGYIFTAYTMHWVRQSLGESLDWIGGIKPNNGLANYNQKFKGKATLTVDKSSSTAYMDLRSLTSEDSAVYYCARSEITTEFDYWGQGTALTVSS VL: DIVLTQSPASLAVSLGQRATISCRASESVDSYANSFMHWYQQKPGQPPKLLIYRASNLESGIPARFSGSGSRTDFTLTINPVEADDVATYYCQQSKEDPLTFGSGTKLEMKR ?
Result: 84
